molecular target: Vasa (Bombyx mori); construct: gene BmVLG; assay: NMR titration, 1H-13C methyl-HMQC, slow exchange; format: binding
quantity-measured: pKd
Answers are plain numbers, as −log10 of the molar value.

**Query** What value of pKd has been recorded for this entry: Nc1ncnc2c1ncn2[C@@H]1O[C@H](COP(=O)(O)OP(=O)(O)O)[C@@H](O)[C@H]1O [ADP]
**Result** 4.28

====

target: Vasa (Bombyx mori, UniProt O01378); construct: gene BmVLG; test: NMR methyl CSP titration, fast exchange (not saturated; KD inaccurate); type: binding
Sequence (O01378 135-564): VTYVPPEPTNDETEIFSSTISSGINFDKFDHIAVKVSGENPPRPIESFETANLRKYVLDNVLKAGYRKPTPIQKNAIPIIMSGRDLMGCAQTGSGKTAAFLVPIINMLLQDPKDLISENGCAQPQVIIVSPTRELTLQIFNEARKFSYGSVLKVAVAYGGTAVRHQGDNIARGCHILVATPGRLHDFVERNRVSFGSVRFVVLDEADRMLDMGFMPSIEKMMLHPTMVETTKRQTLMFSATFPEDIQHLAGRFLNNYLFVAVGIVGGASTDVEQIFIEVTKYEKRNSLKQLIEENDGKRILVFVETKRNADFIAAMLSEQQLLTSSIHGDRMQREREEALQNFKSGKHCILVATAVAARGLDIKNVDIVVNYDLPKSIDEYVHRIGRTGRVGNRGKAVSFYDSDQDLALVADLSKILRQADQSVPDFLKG
quantity-measured: Kd

**Query** Requested read-out: Kd. Entry: Nc1ncnc2c1ncn2[C@@H]1O[C@H](CO[P@](=O)(O)O[P@](=O)(O)O[P@@](=O)(O)S)[C@@H](O)[C@H]1O [ATPγS, adenosine 5′-γ-thiotriphosphate]
**Result** ~18.8 mM
